- tgt: SARS-CoV-2 spike protein, B1.1.7 (alpha variant), borne on lentiviral pseudovirus (SARS-CoV-2, B1.1.7)
- assayProcedure: cell-based or functional assay
Provide the reported Pseudo Neut, B1.1.7 IC50 (pM) of each item.
Hi! Could you send only the number? It should be in pM, unit omitted.

Asked: Return reported Pseudo Neut, B1.1.7 IC50 (pM); argument: antibody 2794 (antibody, V domains shown) VH: QVQLVQSGAEVKKPGSSLKVSCKASGGTFNNFAISWVRQAPGQGPEWMGRINPILSAAKYAQKFQGRLTITADKSTTTAYMELSSLRSEDTAVYYCAPTGTGESWWFDPWGQGTLVTVSS VL: QSVLTQPPSASGTPGQRVTISCSGSSSNIGTNYVYWYQQLPGTAPKVLIYGNNQRPSGVPDRFSGSKSGSSASLAISGLRSEDEADYYCAAWDDSLSGPVFGGGTKLTVL
Given back: 148

Asked: Return reported Pseudo Neut, B1.1.7 IC50 (pM); argument: antibody 1823 (antibody, V domains shown) VH: EVQLVESGGGLVKPGGSLRLSCVASGFSFGLYTMNWVRQAPGKGLEWVSYISSSTSYKYYADSVKGRVSVSRDNAKNSLYLQLNGLRVEDTAVYYCARDGYCPNGICTYYGMDVWGQGTTVTVSA VL: EIVMTQSPATLSVSPGERATLSCRASQSVSSNLAWYQQKPGQAPRLLIYGASTRATGIPARFSGSGSGTEFTLTITGLQSEDFAVYYCQQYDKWPPAYSFGQGTKVEIK
Given back: 850
